- Tested on: Danio rerio embryo (fli1:egfp)
- ASSAY_SUMMARY: intersegmental vessel area normalized to body length at 72 hpf (ISV area / body length (normalized units)); higher = more vessel area
- CONDITION_DESCRIPTION: 6.25 µM; exposure: 5-72 hpf
Listing of entries alongside the reported intersegmental vessel area normalized.
Just the number.

Consider the reported intersegmental vessel area normalized for these molecules:
>  <MOLECULE>
CCCCCOC(=O)COc1cc(N2C(=O)C3=C(CCCC3)C2=O)c(F)cc1Cl

>  <intersegmental vessel area normalized>
65.1

$$$$
>  <MOLECULE>
O=C(O)c1cc(Oc2ccc(C(F)(F)F)cc2Cl)ccc1[N+](=O)[O-]

>  <intersegmental vessel area normalized>
89.2

$$$$
>  <MOLECULE>
CC(C)Oc1cc(-n2nc(C(C)(C)C)oc2=O)c(Cl)cc1Cl

>  <intersegmental vessel area normalized>
90.4

$$$$
>  <MOLECULE>
CCOC(=O)COc1cc(-c2nn(C)c(OC(F)F)c2Cl)c(F)cc1Cl

>  <intersegmental vessel area normalized>
86

$$$$
>  <MOLECULE>
CCOC(=O)C(Cl)Cc1cc(-n2nc(C)n(C(F)F)c2=O)c(F)cc1Cl (stereo not given)

>  <intersegmental vessel area normalized>
67.9

$$$$

Ask: Would you mind telling me what intersegmental vessel area normalized value was observed for CCOC(=O)COc1cc(-n2ncc(C(F)(F)F)c(C)c2=O)c(F)cc1Cl ?
Reply: 83.5

Ask: Also need CCOc1cc(Oc2ccc(C(F)(F)F)cc2Cl)ccc1[N+](=O)[O-] , thanks.
Reply: 100

Ask: Also need CCCCSP(=O)(SCCCC)SCCCC , thanks.
Reply: 94.4

Ask: Also need CCOC(=O)C(C)OC(=O)c1cc(Oc2ccc(C(F)(F)F)cc2Cl)ccc1[N+](=O)[O-] (stereo not given) , thanks.
Reply: 92.9

Ask: Also need C#CCOC(=O)[C@@H](C)Oc1ccc(Oc2ncc(Cl)cc2F)cc1 , thanks.
Reply: 82.8

Ask: Also need C#CCN1C(=O)COc2cc(F)c(N3C(=O)C4=C(CCCC4)C3=O)cc21 , thanks.
Reply: 69.6

Ask: Also need CC(C)[C@H](C(=O)O[C@H](C#N)c1cccc(Oc2ccccc2)c1)c1ccc(Cl)cc1 [Esfenvalerate] , thanks.
Reply: 88.2

Ask: Also need Cc1nn(-c2cc(NS(C)(=O)=O)c(Cl)cc2Cl)c(=O)n1C(F)F , thanks.
Reply: 69.7

Ask: Also need C=CCOC(=O)C(C)(C)OC(=O)c1cc(-n2c(=O)cc(C(F)(F)F)n(C)c2=O)ccc1Cl , thanks.
Reply: 72.8

Ask: Also need COC(=O)N(C(=O)N1CO[C@@]2(C(=O)OC)Cc3cc(Cl)ccc3C2=N1)c1ccc(OC(F)(F)F)cc1 , thanks.
Reply: 87.7

---

- Test system: Danio rerio embryo (fli1:egfp)
- ASSAY_SUMMARY: arterial (dorsal aorta) circulation score at 72 hpf (normalized DA-Max (arbitrary units)); higher = more circulation
- CONDITION_DESCRIPTION: 0.195 µM; exposure: 5-72 hpf
Listing of entries alongside the reported arterial.
Just the number.

>  <COMPOUND>
N#Cc1c(Cl)c(Cl)c(Cl)c(C#N)c1Cl [Chlorothalonil]

>  <arterial>
10.3

$$$$
>  <COMPOUND>
C[C@@]1(c2ccc(Oc3ccccc3)cc2)OC(=O)N(Nc2ccccc2)C1=O (racemic) [Famoxadone]

>  <arterial>
14.5

$$$$
>  <COMPOUND>
COC(=O)N(C(=O)N1CO[C@@]2(C(=O)OC)Cc3cc(Cl)ccc3C2=N1)c1ccc(OC(F)(F)F)cc1 [Indoxacarb]

>  <arterial>
10.5

$$$$
>  <COMPOUND>
CC(C)[C@H](C(=O)O[C@H](C#N)c1cccc(Oc2ccccc2)c1)c1ccc(Cl)cc1 [Esfenvalerate]

>  <arterial>
10.1

$$$$
>  <COMPOUND>
C#CCN1C(=O)COc2cc(F)c(N3C(=O)C4=C(CCCC4)C3=O)cc21 [Flumioxazin]

>  <arterial>
5.79

$$$$
>  <COMPOUND>
CCOc1cc(Oc2ccc(C(F)(F)F)cc2Cl)ccc1[N+](=O)[O-] [Oxyfluorfen]

>  <arterial>
15.8

$$$$
>  <COMPOUND>
CCCCSP(=O)(SCCCC)SCCCC [Tribufos]

>  <arterial>
14.9

$$$$
>  <COMPOUND>
CCOC(=O)COc1cc(-c2nn(C)c(OC(F)F)c2Cl)c(F)cc1Cl [Pyraflufen-ethyl]

>  <arterial>
10.5

$$$$

Ask: Entry C#CCOC(=O)[C@@H](C)Oc1ccc(Oc2ncc(Cl)cc2F)cc1 [Clodinafop-propargyl] , system Danio rerio embryo (fli1:egfp): what arterial was measured?
Reply: 16.7

Ask: Also need CO/N=C(/C1=NOCCO1)c1ccccc1Oc1ncnc(Oc2ccccc2Cl)c1F [Fluoxastrobin] , thanks.
Reply: 16.2

Ask: Also need CCN(Cc1c(F)cccc1Cl)c1c([N+](=O)[O-])cc(C(F)(F)F)cc1[N+](=O)[O-] [Flumetralin] , thanks.
Reply: 16.8

Ask: Also need CC(C)Oc1cc(-n2nc(C(C)(C)C)oc2=O)c(Cl)cc1Cl [Oxadiazon] , thanks.
Reply: 13.8

Where these numbers come from: the supplement of paper PMC4121296
